# Tested on: K4 kissing-loop RNA reporter
# Test Description: apparent KD of K4 kissing-loop reporter; higher = weaker reporter binding
# Experimental Setup: Eterna round: R107; input ligand: arginine 13.2 mM
Measurement Kind: apparent KD of K4 kissing-loop reporter (nM)
State just the number; it will be interpreted in nM.

Before answering, review these 3 worked examples.
Given the sequence UGGAGUUGACGAAAAGUCAACUCCUGAGAAGGAGCGGACGAAAGUCCAGGUAGGUCGCUCACUACCAGUGAUGUUGGUACUAAAA , what is its reported apparent KD of K4 kissing-loop reporter?
157

Given the sequence GGCACGGGCUCGGCCGCCACUCCCGCGGGUCGAAAGGUCCGCUACUGAGUGAUGUUCGGUUGGAGGAGGACCGGGAGCCCGUGCC [#2 Exclusion - Tryptophan B Attempt #23 (HarryS)] , what is its reported apparent KD of K4 kissing-loop reporter?
91.6

Given the sequence GGAUAGGAGAGAGGAUAUGGGCUAGGCAAGAAUAACUUGUCUAGCAAAUCCAUGAGGAGUGAUGUUCCAGAAGGCUCUCCUAUCG [FmnBX 1 G9+C77] , what is its reported apparent KD of K4 kissing-loop reporter?
148

Continuing:
Given the sequence UGCUUUAUCAGAAGGAGCGCGUUAUUCAUAAUAAUAAUCAGUGAUGUUGAUAUAUGAUGAUUGCAGGUAGGUCGCUGAUAUAGCU [KL-XARG-B3] , what is its reported apparent KD of K4 kissing-loop reporter?
225

Given the sequence GGAUAGGAUAGAGGAUAUGGACUAGGCAAGAAUAACUUGUCUAGUAAAUCCAUGAGGAGUGAUGUUCCAGAAGGCUGUCCUAUCG [MatMod 3 - Jieux - Exclusion - FMN B] , what is its reported apparent KD of K4 kissing-loop reporter?
200

Given the sequence UAACUUGCAGUGAUGUUGCAAGAACUGGAUACCAGCAUGGAAACAUGCCCUUGGCAGCCAGAAGCUGGCUGAACAUCACGUCAGU [Design5] , what is its reported apparent KD of K4 kissing-loop reporter?
140

====

# System: K4 kissing-loop RNA reporter
# Test Description: apparent KD of K4 kissing-loop reporter; higher = weaker reporter binding
# Experimental Setup: Eterna round: R107; input ligand: none
apparent KD of K4 kissing-loop reporter of 0.2 µM or higher: fulfilled. Under 0.2 µM: not fulfilled.

Given the entry AGACUACCACACUGUCAAUAGACAGUGAACUAGGAUAUGCUGAUAAGCAGAAGGAGUGAUGUUCCGAGGUAGUCAAUAAAAUAAU [FmnAX 13 G66] , answer whether its apparent KD of K4 kissing-loop reporter meets or surpasses 0.2 µM.
fulfilled

Given the entry AUGUCUAAUACGGCCGCCACUCGAGCAGUGAUGUUGCUCAGUAAUGGUCAUCGUCGUACAUGCCCGAGGACCGGGUAUUGAUUUG [Remain] , answer whether its apparent KD of K4 kissing-loop reporter meets or surpasses 0.2 µM.
not fulfilled

Given the entry UGGAGUUGACGAAAAGUCAACUCCUGAGAUACCAGUGACGAAAGUCACCCUUGGCAGCUCACUGGCAGUGAUGUUGCGCGAUAAA [#23 K4 Theophylline A Same State] , answer whether its apparent KD of K4 kissing-loop reporter meets or surpasses 0.2 µM.
fulfilled

Given the entry UGUCAUUGGUCUGAUACCAGUUGGGACGAAUACGUCCAACUGGAGUGAUGUUCCUAAAACAACCCUUGGCAGCAGACCGAUGACU [TheoBS 13 #SwitchBubble 13 #StaticStem] , answer whether its apparent KD of K4 kissing-loop reporter meets or surpasses 0.2 µM.
fulfilled

Given the entry UUAUAUAAGGGAAGGAGCGCGUGGGCGCAGUGAUGUUGCGCCCGACAUCACUUCAACUUAACGCAGGUAGGUCGCCCUUUUAAUA [Arginine B (Excl) V4] , answer whether its apparent KD of K4 kissing-loop reporter meets or surpasses 0.2 µM.
fulfilled

Continuing:
Given the entry GAACGAGUGAUGUUCGUUGGCAUGCAUUCCGAGGAUAUGGGAUUAGCCAGAAGGCGGAAUCAGUCUUCGAGUGAUGUUCGAAGAU [Same State FMN A GF 12] , answer whether its apparent KD of K4 kissing-loop reporter meets or surpasses 0.2 µM.
not fulfilled

====

# System: MS2 coat protein
# Test Description: apparent KD of MS2 coat protein; designed switch direction (-1 OFF switch, 1 ON switch): -1; higher = weaker reporter binding
# Experimental Setup: input ligand: microRNA oligo, concentration not stated
Measurement Kind: apparent KD of MS2 coat protein (nM)
State just the number; it will be interpreted in nM.

What measured apparent KD of MS2 coat protein is associated with UUAGUAUUGCAAGGAUAUGUUUAUGAUAUUUUUCCUCUUACAUGAGGAUCACCCAUGUUUAACUUACAGAAGGUGCUAUGAUUU [JR_ExcNG2_Sub031] (Eterna round: R96, puzzle: Exclusion NG 2) on MS2 coat protein?
342

What measured apparent KD of MS2 coat protein is associated with CUUAGUUGGUAAGGAUAUCCUACAUUGUUCUGGCCCGGGCAUGCUACAUGAGGAUCACCCAUGUGGGAGAAGGUGCGUCAUCGC [Design 18] (Eterna round: R96, puzzle: Exclusion NG 2) on MS2 coat protein?
45.1

What measured apparent KD of MS2 coat protein is associated with GGAAAUCAUGUAGGAUAUGCGUGGCGAAGCUAUGCAGAAGGACAUGAGGAUCACCCAUGUGCUUCCGUCUGCGUACAGACGGAA [Mat - Exclusion NG 1 - Mod of JL - D20] (Eterna round: R96, puzzle: Exclusion NG 1) on MS2 coat protein?
77.9

Next:
What measured apparent KD of MS2 coat protein is associated with ACGCGAUAUGGCGUAACGCGACAUGAGGAUCACCCAUGUAACGAGGAUAUGAUCUCGAGAGAGGGUCAGAAGGCGUUACAAUAU [Eternabot solution 23] (Eterna round: R96, puzzle: Exclusion NG 3) on MS2 coat protein?
70.7

====

# apparent KD of K4 kissing-loop reporter values compiled below
# System: K4 kissing-loop RNA reporter;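 further: bound reporter read as fluorescence of individual clusters on recovered sequencing chips by microscopy, with normalized cluster intensities fitted with a binding model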
# Test Description: apparent KD of K4 kissing-loop reporter; higher = weaker reporter binding
# Experimental Setup: Eterna round: R107; input ligand: arginine 13.2 mM
State the value, then name its unit.

Before answering, review these 2 worked examples.
Given the sequence CGGUACGUCGCAGGAUAUGUAAAUGUAAGUGAUGUUUACAUACCAUGCUGGCGAAAGCCAGCAUGGACAGAAGGGCGACGUACCG , what is its reported apparent KD of K4 kissing-loop reporter?
0.354 µM

Given the sequence GCAGACACGCAGUGAUGUUGCGAAACGGAAGGAGCGCGUGAAAACGCAGGUAGGUCGCCGACACAUUAAUUAUAAUUUUGUUUGC [Arginine A K4 15] , what is its reported apparent KD of K4 kissing-loop reporter?
0.241 µM

Next:
Given the sequence CCGCUACCCUCAGGAUAUUAAGUAUUAGUGAUGUUAGUAAACCGAUGGCGAAAGCCAUCGGUAUGUUGAGAAGGGAGGGUAGCGG [whbob_SS_FMNB__2th198] , what is its reported apparent KD of K4 kissing-loop reporter?
0.946 µM

====

# apparent KD of MS2 coat protein values compiled below
# System: MS2 coat protein
# Test Description: apparent KD of MS2 coat protein, switch OFF state (with FMN for OFF switches, without FMN for ON switches); designed switch direction (-1 OFF switch, 1 ON switch): -1; higher = weaker reporter binding
# Experimental Setup: FMN input: 0 or 200 uM; Eterna round: R93 (includes R88 designs)
State just the number; it will be interpreted in nM.

Before answering, review these 5 worked examples.
Given the sequence AAAUAGUUAGGAUAUACAUGAGGAUCACCCAUGUGGACUUAUGGAGAAUAGUCUAAUGGUAGAAGGGACUAAAA [EX2 Malc#24] , what is its reported apparent KD of MS2 coat protein?
45.8

Given the sequence AACAGUACAGGAUAUACAUGAGGAUCACCCAUGUGAAAAUUAAGUGGGAAACCACAAAGUAGAAGGGUACUGAA [Mat - Exclusion 3 - Eli mod - D59] , what is its reported apparent KD of MS2 coat protein?
114

Given the sequence AAGAACAGAGGAUAUACUAAAGAAAUGAAAAGAAAGAAAGAACAUGAGGAUCACCCAUGUAGAAGGCUGAAGAA [Yakbim Sekhaenre] , what is its reported apparent KD of MS2 coat protein?
13.5

Given the sequence AACUGACAUGAGGAUCACCCAUGUCAGGAUAUGAUUUGACGAAAAAAAAUAAGUCAUAUCAGAAGGGACAUGGA [Design 84: Sub-opt WB] , what is its reported apparent KD of MS2 coat protein?
45

Given the sequence AAAACACAUGAGGAUCACCCAUGUGAGGAUAUGCUAGUGAAAAUAAAAAUAAAACAUAGCAGAAGGCACAAGGA [Amethyst 79] , what is its reported apparent KD of MS2 coat protein?
45.8

Next:
Given the sequence AAGAAGGUAGGAUAUACUAGGGCAACUAAUGCAAAGAUAGAACAUGAGGAUCACCCAUGUAGAAGGGCCAGAAA [JR_Exc002_Sub402] , what is its reported apparent KD of MS2 coat protein?
40.5
